Target: UniProtKB Q9UM07
Sequence (Q9UM07 whole entry): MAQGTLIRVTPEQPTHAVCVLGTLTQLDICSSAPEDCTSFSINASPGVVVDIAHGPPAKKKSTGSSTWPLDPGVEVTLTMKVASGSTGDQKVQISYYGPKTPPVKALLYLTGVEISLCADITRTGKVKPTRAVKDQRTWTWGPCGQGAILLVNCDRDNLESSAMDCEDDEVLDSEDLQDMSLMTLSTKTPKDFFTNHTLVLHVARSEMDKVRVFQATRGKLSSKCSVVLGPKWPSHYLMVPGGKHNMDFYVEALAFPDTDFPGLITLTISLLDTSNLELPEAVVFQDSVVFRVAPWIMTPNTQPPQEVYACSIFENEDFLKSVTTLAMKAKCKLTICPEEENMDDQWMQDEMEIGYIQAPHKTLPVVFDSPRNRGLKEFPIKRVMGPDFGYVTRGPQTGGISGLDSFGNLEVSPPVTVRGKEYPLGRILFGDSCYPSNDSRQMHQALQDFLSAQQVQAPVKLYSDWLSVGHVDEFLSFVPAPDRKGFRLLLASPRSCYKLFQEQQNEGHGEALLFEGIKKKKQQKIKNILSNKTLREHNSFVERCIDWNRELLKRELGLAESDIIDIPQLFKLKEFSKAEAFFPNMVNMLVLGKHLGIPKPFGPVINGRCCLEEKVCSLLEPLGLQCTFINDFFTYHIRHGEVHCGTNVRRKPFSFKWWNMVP
Assay: RFMS Assay 2 (rapid-fire mass spectrum PAD4 inhibition assay, peptide substrate)
Assay type: biochemical
Settings: 35 nM recombinant human PAD4, substrate TSTGGRQGSHH, room temperature for 30 minutes; read-out: human PAD4 (hPAD4) IC50, RFMS Assay 2
pIC50: −log10 of the molar value.
Property Measured: pIC50

Reference set (3 entries):
Molecule	pIC50
Cn1c(-c2cc3cccnc3n2CC2CC2)nc2cc3c(nc21)CCN(C[C@H](N)CF)C3=O	< 6.00
COc1cccc2cc(-c3nc4cc5c(nc4n3C)CCN(C[C@H](N)CF)C5=O)n(Cc3ncco3)c12	6.00 to 6.30
Cn1c(-c2cc3cccc(OCC(C)(C)n4ccnc4)c3n2CC2CC2)nc2cc3c(nc21)CCN(C[C@H](N)CF)C3=O	6.30 to 7.00

Assay UniProtKB Q9UM07, sample "Cn1c(-c2cc3cccc(OC[C@@H]4CNC(=O)O4)c3n2CC2CC2)nc2cc3c(nc21)CCN(C[C@H](N)CF)C3=O" , pIC50 read: 7.00 to 7.96

Assay UniProtKB Q9UM07, sample "COc1cccc2cc(-c3nc4cc5c(nc4n3C)CCN(C[C@H](N)CF)C5=O)n(CC3OCCO3)c12" , pIC50 read: 6.30 to 7.00

Assay UniProtKB Q9UM07, sample "COCC(=O)N1CCC(c2cccc3cc(-c4nc5cc6c(nc5n4C)CCN(C[C@H](N)CF)C6=O)n(CC4CC4)c23)CC1" , pIC50 read: ≥ 8.00

Assay UniProtKB Q9UM07, sample Cn1c(-c2cc3cccc(OC(F)Cn4cncc4F)c3n2CC2CC2)nc2cc3c(nc21)CCN(C[C@H](N)CF)C3=O (single isomer, unassigned) [Example 75b] , pIC50 read: 7.00 to 7.96

Assay UniProtKB Q9UM07, sample "Cn1c(-c2cc3cccc(OCCn4cncc4F)c3n2CC2CC2)nc2cc3c(nc21)CCN(C[C@H](N)CF)C3=O" , pIC50 read: 6.30 to 7.00

Assay UniProtKB Q9UM07, sample "COc1cccc2cc(-c3nc4cc5c(nc4n3C)CCN(C[C@H](N)CF)C5=O)n(Cc3ncc(C)o3)c12" , pIC50 read: 6.30 to 7.00

Assay UniProtKB Q9UM07, sample "COc1cccc2cc(-c3nc4cc5c(nc4n3C)CCN(C[C@H]3COCCN3)C5=O)n(CC3CC3)c12" , pIC50 read: < 6.00

Assay UniProtKB Q9UM07, sample "C[C@@H](N)CN1CCc2nc3c(cc2C1=O)nc(-c1cc2ccccc2n1CC1CC1)n3C" , pIC50 read: 6.00 to 6.30

Assay UniProtKB Q9UM07, sample "Cn1c(-c2cc3cccc(OCCn4cnc(F)c4)c3n2CC2CC2)nc2cc3c(nc21)CCN(C[C@H](N)CF)C3=O" , pIC50 read: 7.00 to 7.96

Assay UniProtKB Q9UM07, sample "Cn1c(-c2cc3cccc(OCCc4ccon4)c3n2CC2CC2)nc2cc3c(nc21)CCN(C[C@H](N)CF)C3=O" , pIC50 read: 7.00 to 7.96

Assay UniProtKB Q9UM07, sample "COc1cccc2cc(-c3nc4cc5c(nc4n3C)CCN(C[C@H](N)CF)C5=O)n(CC3CC3)c12" , pIC50 read: 6.00 to 6.30

Assay UniProtKB Q9UM07, sample CC(Cc1cnco1)Oc1cc(F)cc2cc(-c3nc4cc5c(nc4n3C)CCN(C[C@H](N)CF)C5=O)n(CC3CC3)c12 (single isomer, unassigned) [Example 65b] , pIC50 read: 6.30 to 7.00

Assay UniProtKB Q9UM07, sample "Cn1c(-c2cc3cccc(OCCc4cnco4)c3n2CC2CC2)nc2cc3c(nc21)CCN(C[C@H](N)CF)C3=O" , pIC50 read: 7.00 to 7.96

Assay UniProtKB Q9UM07, sample "C[C@H](Cn1ccnc1)Oc1cccc2cc(-c3nc4cc5c(nc4n3C)CCN(C[C@H](N)CF)C5=O)n(CC3CC3)c12" , pIC50 read: 6.30 to 7.00

Assay UniProtKB Q9UM07, sample "Cn1c(-c2cc3cccc(OC[C@H]4CNC(=O)C4)c3n2CC2CC2)nc2cc3c(nc21)CCN(C[C@H](N)CF)C3=O" , pIC50 read: 6.30 to 7.00

Assay UniProtKB Q9UM07, sample "C[C@@H](COc1cccc2cc(-c3nc4cc5c(nc4n3C)CCN(C[C@H](N)CF)C5=O)n(CC3CC3)c12)n1cnc(F)c1" , pIC50 read: 7.00 to 7.96

This collection of values is drawn from patent US20250353848A1.
